experiment: log P by HPLC (OECD Guideline 117), method [b] neutral range; type: physicochemical; conditions: HPLC, method [b] neutral range
Kindly state logP[b] for each of the entries shown.
# print the numeric value only

Request: Hello, please tell me recorded logP[b] for this one: Cc1cc(F)c(-n2nc(C(F)(F)F)n(N)c2=O)cc1[S+]([O-])CC(F)(F)F (stereo not shown) [Example 215]
Result: 2.17

Request: Hello, please tell me recorded logP[b] for this one: CCCn1c(OC)nn(-c2cc([S+]([O-])CC(F)(F)F)c(C)cc2F)c1=O (stereo not shown) [Example 411]
Result: 2.41

Request: Hello, please tell me recorded logP[b] for this one: CCCCn1c(C(F)(F)F)nn(-c2cc([S+]([O-])CC(F)(F)F)c(C)cc2F)c1=O (stereo not shown) [Example 365]
Result: 3.54

Request: Hello, please tell me recorded logP[b] for this one: CCSc1nn(-c2cc(SCC(F)(F)F)c(C)cc2F)c(=O)n1C1CC1 [Example 261]
Result: 4.03

Data origin, for the record: patent US9981940B2
